Values from paper PMC12155096

# targetUnderTest: human CYP2C9 (Homo sapiens)
# Sequence (P11712 whole entry): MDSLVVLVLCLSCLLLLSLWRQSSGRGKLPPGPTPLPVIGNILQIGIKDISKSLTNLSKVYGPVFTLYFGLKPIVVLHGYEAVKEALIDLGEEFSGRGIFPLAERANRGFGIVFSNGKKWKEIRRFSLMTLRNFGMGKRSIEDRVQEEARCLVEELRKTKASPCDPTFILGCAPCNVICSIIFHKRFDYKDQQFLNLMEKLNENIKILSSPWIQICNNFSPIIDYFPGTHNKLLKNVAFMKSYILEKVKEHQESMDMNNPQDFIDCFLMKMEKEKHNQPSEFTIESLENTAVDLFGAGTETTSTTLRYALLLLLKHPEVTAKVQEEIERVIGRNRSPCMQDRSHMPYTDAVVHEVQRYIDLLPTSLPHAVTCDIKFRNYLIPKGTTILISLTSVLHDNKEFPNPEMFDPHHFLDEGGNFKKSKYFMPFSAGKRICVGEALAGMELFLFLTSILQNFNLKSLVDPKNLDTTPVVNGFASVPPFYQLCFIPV
# assayText: biochemical
Counter-ions that a name gives are not always drawn.
measure: AC50 (µM)
Answer in µM, number only, no unit symbol.

Record excerpt, results attached:
{"compound": "O=C(O)c1ccccc1Nc1cccc(C(F)(F)F)c1", "AC50 (µM)": 23.9}
{"compound": "COC(=O)C(C)Oc1ccc(Oc2ncc(C(F)(F)F)cc2Cl)cc1 (stereo not shown)", "AC50 (µM)": 5.74}
{"compound": "O=C(c1ccccc1)c1ccc(Cl)cc1", "AC50 (µM)": 50}
{"compound": "CCc1c(C(=O)NN2CCCCC2)nn(-c2ccc(Cl)cc2Cl)c1-c1ccc(Br)cc1", "AC50 (µM)": 8.32}
{"compound": "NNS(=O)(=O)c1ccc(Oc2ccc(S(=O)(=O)NN)cc2)cc1 [4,4'-Oxybis(benzenesulfonhydrazide)]", "AC50 (µM)": 6}

// query Give the measured AC50 of CCC1OCC(COc2ccc(Oc3ccccc3)cc2)O1 (stereo not shown) .
// result 29.4

// query Give the measured AC50 of `C[C@]12CCC(=O)C=C1[C@@H]1C[C@@H]1[C@H]1[C@@H]3[C@@H]4C[C@@H]4[C@@]4(CCC(=O)O4)[C@@]3(C)CC[C@@H]12` .
// result 26.4

// query Give the measured AC50 of CCCCCCCCOS(=O)(=O)O [Sodium octyl sulfate] .
// result 30.6

---

# targetUnderTest: CYP3A4 (Homo sapiens, UniProt P08684)
# Sequence (P08684 whole entry): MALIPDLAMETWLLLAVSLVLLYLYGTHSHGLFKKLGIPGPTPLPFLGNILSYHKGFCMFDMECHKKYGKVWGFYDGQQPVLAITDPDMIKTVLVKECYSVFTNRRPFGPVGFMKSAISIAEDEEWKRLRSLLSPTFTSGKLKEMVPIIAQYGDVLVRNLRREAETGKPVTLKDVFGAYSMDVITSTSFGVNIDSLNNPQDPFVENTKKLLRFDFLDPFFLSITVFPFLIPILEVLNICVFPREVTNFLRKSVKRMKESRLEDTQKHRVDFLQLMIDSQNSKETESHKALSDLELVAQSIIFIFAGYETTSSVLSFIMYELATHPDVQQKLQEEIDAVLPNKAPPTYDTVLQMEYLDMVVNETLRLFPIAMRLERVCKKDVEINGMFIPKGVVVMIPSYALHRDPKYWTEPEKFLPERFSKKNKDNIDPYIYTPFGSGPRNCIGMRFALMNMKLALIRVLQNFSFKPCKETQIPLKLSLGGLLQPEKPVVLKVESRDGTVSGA
measure: CYP3A4 AC50 (half-maximal activity concentration)

{"compound": "COC(=O)Nc1nc2ccc(C(=O)c3ccccc3)cc2[nH]1 [Mebendazole]", "recordedValue": "Inactive"}
{"compound": "Nc1ccc([N+](=O)[O-])c(C(F)(F)F)c1 [3-Trifluoromethyl-4-nitroanilide]", "recordedValue": "Inactive"}
{"compound": "COC(=O)c1ccc(O)cc1 [Methylparaben]", "recordedValue": "Inactive"}
{"compound": "COC(=O)Nc1nc2ccc(C(=O)c3cccs3)cc2[nH]1 [Nocodazole]", "recordedValue": "Inactive"}
{"compound": "Oc1ccc(Cc2ccc(O)cc2)cc1 [Bis(4-hydroxyphenyl)methane]", "recordedValue": "Inconclusive inhibitor"}

// query Recall the recorded CYP3A4 AC50 (half-maximal activity concentration) for CCN(CC)c1ccc(C=O)cc1 [4-(Diethylamino)benzaldehyde] with CYP3A4 (Homo sapiens, UniProt P08684) and state it.
// result Inactive

// query Recall the recorded CYP3A4 AC50 (half-maximal activity concentration) for Oc1cc(Cl)c(Cl)cc1Cl [2,4,5-Trichlorophenol] with CYP3A4 (Homo sapiens, UniProt P08684) and state it.
// result Inactive

// query Recall the recorded CYP3A4 AC50 (half-maximal activity concentration) for CCNc1nc(NC(C)C)nc(OC)n1 [Atraton] with CYP3A4 (Homo sapiens, UniProt P08684) and state it.
// result Inconclusive inhibitor

---

# targetUnderTest: UniProtKB P11712
# assayText: biochemical
# conditionSummary: CYP2C9 AC50 (half-maximal activity concentration)
measure: AC50
Form field: result (number plus unit)

Record excerpt, results attached:
{"molecule": "CC(C)(c1ccc(O)cc1)c1ccc(O)cc1", "recordedValue": "29.1 µM"}
{"molecule": "CC(C)OC(=O)C(C)(C)Oc1ccc(C(=O)c2ccc(Cl)cc2)cc1 [Fenofibrate]", "recordedValue": "3.17 µM"}
{"molecule": "COCC(=O)N(c1c(C)cccc1C)C(C)C(=O)OC (stereo not drawn) [Metalaxyl]", "recordedValue": "59.1 µM"}

// query Give the measured AC50 of `C[C@]12CCC(=O)C=C1CC[C@@H]1[C@@H]2CC[C@]2(C)C(=O)CC[C@@H]12` .
// result 71.9 µM

// query Give the measured AC50 of `O=S(=O)(c1ccccc1)c1ccccc1` .
// result 7.39 µM
